target: PKC Delta (Homo sapiens); test: PKC delta coupled-enzyme kinase assay (NADH consumption); conditions: 240 μM ATP, 30° C.
PROPERTY_LABEL: Ki

stdin: Kindly state the measured Ki obtained for `CC(C)(N)CNc1cccc(-c2n[nH]c3ncccc23)n1` with PKC Delta (Homo sapiens).
stdout: < 50 nM

stdin: For `O[C@H](CNc1cccc(-c2n[nH]c3ncccc23)n1)c1ccccc1` then?
stdout: > 700 nM

stdin: For NCC(CNc1cccc(-c2n[nH]c3ncccc23)n1)c1ccccc1 (centres unmarked) then?
stdout: < 50 nM

stdin: For CCC(CO)Nc1ccc(C(F)(F)F)c(-c2n[nH]c3ncccc23)n1 (centres unmarked) then?
stdout: > 700 nM

stdin: For `CC(C)C[C@@H](N)COc1ccc(C(F)(F)F)c(-c2n[nH]c3ncccc23)n1` then?
stdout: > 700 nM

====

molecular target: PKC Delta (Homo sapiens, UniProt Q05655); test: PKC delta coupled-enzyme kinase assay (NADH consumption); details: 240 μM ATP, 30° C.
Sequence (Q05655 whole entry): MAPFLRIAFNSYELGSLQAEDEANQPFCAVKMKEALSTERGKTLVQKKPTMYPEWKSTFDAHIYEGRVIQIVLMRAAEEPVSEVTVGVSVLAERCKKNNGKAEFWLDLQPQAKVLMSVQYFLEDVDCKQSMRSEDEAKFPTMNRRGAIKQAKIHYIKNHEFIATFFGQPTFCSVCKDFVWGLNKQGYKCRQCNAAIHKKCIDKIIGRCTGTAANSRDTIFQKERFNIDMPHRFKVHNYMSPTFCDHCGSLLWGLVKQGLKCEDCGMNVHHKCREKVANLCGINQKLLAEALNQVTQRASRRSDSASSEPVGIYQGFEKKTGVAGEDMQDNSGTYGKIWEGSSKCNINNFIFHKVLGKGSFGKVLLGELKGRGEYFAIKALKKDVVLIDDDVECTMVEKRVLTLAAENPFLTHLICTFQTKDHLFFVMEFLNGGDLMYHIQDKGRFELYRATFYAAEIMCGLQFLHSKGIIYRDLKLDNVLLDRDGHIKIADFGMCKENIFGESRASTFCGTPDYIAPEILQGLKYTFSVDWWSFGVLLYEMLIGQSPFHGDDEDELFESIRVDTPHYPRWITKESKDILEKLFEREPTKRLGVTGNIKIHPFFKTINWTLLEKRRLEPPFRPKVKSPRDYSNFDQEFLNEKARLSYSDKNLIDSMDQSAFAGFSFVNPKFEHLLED
pKi: −log10 of the molar value.
PROPERTY_LABEL: pKi

// below: answered molecules
- MOLECULE: "O[C@H](CNc1ccc(C(F)(F)F)c(-c2n[nH]c3ncccc23)n1)c1ccccc1"
  TARGET_DESC: "PKC Delta (Homo sapiens, UniProt Q05655)"
  PROPERTY_LABEL: "pKi"
  READING: "> 6.30"
- MOLECULE: "NCC1CCCC(CNc2ccc(C(F)(F)F)c(-c3n[nH]c4ncccc34)n2)C1 (centres unmarked)"
  TARGET_DESC: "PKC Delta (Homo sapiens, UniProt Q05655)"
  PROPERTY_LABEL: "pKi"
  READING: "< 6.15"
- MOLECULE: "OCCN(CCO)c1ccc(C(F)(F)F)c(-c2n[nH]c3ncccc23)n1"
  TARGET_DESC: "PKC Delta (Homo sapiens, UniProt Q05655)"
  PROPERTY_LABEL: "pKi"
  READING: "< 6.15"
- MOLECULE: "CC(C)C[C@H](N)CNc1cccc(-c2n[nH]c3ncccc23)n1"
  TARGET_DESC: "PKC Delta (Homo sapiens, UniProt Q05655)"
  PROPERTY_LABEL: "pKi"
  READING: "> 6.30"
- MOLECULE: "N#CCCNc1ccc(C(F)(F)F)c(-c2n[nH]c3ncccc23)n1"
  TARGET_DESC: "PKC Delta (Homo sapiens, UniProt Q05655)"
  PROPERTY_LABEL: "pKi"
  READING: "< 6.15"
- MOLECULE: "CC(C)(CN)CNc1ccc(C(F)(F)F)c(-c2n[nH]c3ncccc23)n1"
  TARGET_DESC: "PKC Delta (Homo sapiens, UniProt Q05655)"
  PROPERTY_LABEL: "pKi"
  READING: "> 6.30"

stdin: Kindly state the measured pKi obtained for NC(COc1ccc(C(F)(F)F)c(-c2n[nH]c3ncccc23)n1)c1ccccc1 (centres unmarked) with PKC Delta (Homo sapiens, UniProt Q05655).
stdout: > 6.30

stdin: For `CN(C)C(C)(C)COc1ccc(C(F)(F)F)c(-c2n[nH]c3ncccc23)n1` then?
stdout: < 6.15

====

# pKi per entry
Target: PKC Delta (Homo sapiens, UniProt Q05655)
Assay: PKC delta coupled-enzyme kinase assay (NADH consumption)
Conditions: 240 μM ATP, 30° C.
Procedure: [The source words this procedure for another target and reports this target under the same test.] An assay buffer solution was prepared which consisted of 100 mM HEPES (pH 7.5), 10 mM MgCl2, 25 mM NaCl, 0.1 mM EDTA and 0.01% Brij. […] Initial rate data was determined from the rate of change of absorbance at 340 nm (corresponding to stoichiometric consumption of NADH) using a Molecular Devices Spectramax plate reader (Sunnyvale, Calif.) over 15 mins at 30° C. […]
pKi: −log10 of the molar value.

// below: answered compounds
- COMPOUND: "FC(F)(F)c1ccc(NC2CCNCC2)nc1-c1n[nH]c2ncccc12"
  pKi: "> 5.55"
- COMPOUND: "FC(F)(F)c1ccc(OC[C@@H]2CCCN3CCCC[C@@H]23)nc1-c1n[nH]c2ncccc12"
  pKi: "< 6.15"
- COMPOUND: "NCC1CCC(CNc2ccc(C(F)(F)F)c(-c3n[nH]c4ncccc34)n2)CC1 (centres unmarked)"
  pKi: "> 6.30"
- COMPOUND: "OC1CCCCC1Nc1ccc(C(F)(F)F)c(-c2n[nH]c3ncccc23)n1 (centres unmarked)"
  pKi: "< 6.15"
- COMPOUND: "FC(F)(F)c1ccc(NCC2CCNCC2)nc1-c1n[nH]c2ncccc12"
  pKi: "< 6.15"

stdin: Please give the measured pKi for this compound: `Nc1cc(Cl)cc(Nc2ccc(C(F)(F)F)c(-c3n[nH]c4ncccc34)n2)c1`
stdout: > 6.30

stdin: For FC(F)(F)c1ccc(NCC2CCNC2)nc1-c1n[nH]c2ncccc12 (centres unmarked) then?
stdout: < 6.15

stdin: For NC1CCCCC1Nc1cccc(-c2n[nH]c3ncccc23)n1 (centres unmarked) then?
stdout: > 6.30

====

# pKi per entry
target: PKC Delta (Homo sapiens); assay: PKC delta coupled-enzyme kinase assay (NADH consumption); conditions: 240 μM ATP, 30° C.
pKi: −log10 of the molar value.

- MOLECULE: "NC(=O)c1ccsc1Nc1ccc(C(F)(F)F)c(-c2n[nH]c3ncccc23)n1 [Compound 50]"
  pKi: "< 6.15"
- MOLECULE: "OCc1cccc(Nc2ccc(C(F)(F)F)c(-c3n[nH]c4ncccc34)n2)c1 [Compound 78]"
  pKi: "< 6.15"
- MOLECULE: "NC(CNc1ccc(C(F)(F)F)c(-c2n[nH]c3ncccc23)n1)c1ccccc1 (stereo not drawn) [Compound 36]"
  pKi: "> 7.30"

stdin: Please give the measured pKi for this molecule: FC(F)(F)c1ccc(NCC2CCCCN2)nc1-c1n[nH]c2ncccc12 (stereo not drawn) [Compound 32]
stdout: < 6.15

stdin: For c1cc(NCC2CCCNC2)nc(-c2n[nH]c3ncccc23)c1 (stereo not drawn) [Compound 12] then?
stdout: > 6.30

stdin: For FC(F)(F)c1ccc(NC2CCCNC2)nc1-c1n[nH]c2ncccc12 (stereo not drawn) [Compound 26] then?
stdout: < 6.15

stdin: For c1cc(NCC2CCNCC2)nc(-c2n[nH]c3ncccc23)c1 [Compound 14] then?
stdout: > 6.30

stdin: For c1cc(NCC2CCNC2)nc(-c2n[nH]c3ncccc23)c1 (stereo not drawn) [Compound 22] then?
stdout: > 6.30

stdin: For N[C@H](CNc1cccc(-c2n[nH]c3ncccc23)n1)c1ccccc1 [Compound 11] then?
stdout: > 6.30

====

target: UniProt:Q04759
Sequence (Q04759 whole entry): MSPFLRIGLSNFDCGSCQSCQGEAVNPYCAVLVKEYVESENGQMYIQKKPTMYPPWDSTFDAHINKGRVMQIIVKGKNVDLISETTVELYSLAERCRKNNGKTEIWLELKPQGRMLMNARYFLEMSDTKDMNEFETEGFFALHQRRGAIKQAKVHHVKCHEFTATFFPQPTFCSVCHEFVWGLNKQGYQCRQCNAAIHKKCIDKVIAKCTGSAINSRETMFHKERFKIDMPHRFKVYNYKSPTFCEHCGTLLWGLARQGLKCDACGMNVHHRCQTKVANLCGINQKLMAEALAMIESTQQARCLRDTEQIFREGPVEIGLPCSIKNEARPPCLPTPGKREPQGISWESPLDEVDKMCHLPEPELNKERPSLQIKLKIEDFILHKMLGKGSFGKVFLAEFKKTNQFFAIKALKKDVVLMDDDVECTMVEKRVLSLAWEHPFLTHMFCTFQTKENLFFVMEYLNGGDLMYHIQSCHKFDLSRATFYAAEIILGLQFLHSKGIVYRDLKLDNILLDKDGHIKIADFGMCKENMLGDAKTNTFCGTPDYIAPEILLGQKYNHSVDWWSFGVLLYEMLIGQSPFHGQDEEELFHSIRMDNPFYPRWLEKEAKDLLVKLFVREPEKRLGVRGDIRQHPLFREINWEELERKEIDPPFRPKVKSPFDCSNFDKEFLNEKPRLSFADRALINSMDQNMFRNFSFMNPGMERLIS
# Ki per entry

- MOLECULE: "OC1(CNc2ccc(C(F)(F)F)c(-c3n[nH]c4ncccc34)n2)CCCCC1"
  Ki: "< 500 nM"
- MOLECULE: "OCc1cccc(Nc2ccc(C(F)(F)F)c(-c3n[nH]c4ncccc34)n2)c1"
  Ki: "> 700 nM"
- MOLECULE: "c1cc(NC2CCNCC2)nc(-c2n[nH]c3ncccc23)c1"
  Ki: "< 50 nM"
- MOLECULE: "CC(N)(CO)COc1ccc(C(F)(F)F)c(-c2n[nH]c3ncccc23)n1 (centres unmarked)"
  Ki: "> 700 nM"
- MOLECULE: "O[C@H](CNc1ccc(C(F)(F)F)c(-c2n[nH]c3ncccc23)n1)c1ccccc1"
  Ki: "< 500 nM"

stdin: Please give the measured Ki for this molecule: `FC(F)(F)c1ccc(OC[C@@H]2CCCN2)nc1-c1n[nH]c2ncccc12`
stdout: > 700 nM

stdin: For `CN(CC#N)c1ccc(C(F)(F)F)c(-c2n[nH]c3ncccc23)n1` then?
stdout: < 500 nM

stdin: For CN1CCCC(COc2ccc(C(F)(F)F)c(-c3n[nH]c4ncccc34)n2)C1 (centres unmarked) then?
stdout: > 700 nM

stdin: For `O[C@H]1CC[C@H](Nc2ccc(C(F)(F)F)c(-c3n[nH]c4ncccc34)n2)CC1` then?
stdout: > 700 nM

stdin: For `CN(CCO)c1ccc(C(F)(F)F)c(-c2n[nH]c3ncccc23)n1` then?
stdout: > 700 nM

stdin: For OC1CCCCC1Nc1ccc(C(F)(F)F)c(-c2n[nH]c3ncccc23)n1 (centres unmarked) then?
stdout: > 700 nM

stdin: For `Fc1ccc(NC2CNC2)nc1-c1n[nH]c2ncccc12` then?
stdout: > 700 nM

stdin: For c1cc(NCC2CCNC2)nc(-c2n[nH]c3ncccc23)c1 (centres unmarked) then?
stdout: < 500 nM

stdin: For NC(COc1ccc(C(F)(F)F)c(-c2n[nH]c3ncccc23)n1)c1ccccc1 (centres unmarked) then?
stdout: < 500 nM

stdin: For NCC(CNc1cccc(-c2n[nH]c3ncccc23)n1)c1ccccc1 (centres unmarked) then?
stdout: < 50 nM

stdin: For `NCc1ccc(Nc2ccc(C(F)(F)F)c(-c3n[nH]c4ncccc34)n2)cc1` then?
stdout: > 700 nM

stdin: For `OCCN(CCO)c1ccc(C(F)(F)F)c(-c2n[nH]c3ncccc23)n1` then?
stdout: > 700 nM

stdin: For `CC(C)C[C@H](N)CNc1cccc(-c2n[nH]c3ncccc23)n1` then?
stdout: < 500 nM

stdin: For CCN1CCC(Oc2ccc(C(F)(F)F)c(-c3n[nH]c4ncccc34)n2)C1 (centres unmarked) then?
stdout: > 700 nM

stdin: For c1cc(NCC2CCCCN2)nc(-c2n[nH]c3ncccc23)c1 (centres unmarked) then?
stdout: < 2800 nM

stdin: For `CC(C)(C)[C@H](N)COc1ccc(C(F)(F)F)c(-c2n[nH]c3ncccc23)n1` then?
stdout: > 700 nM

stdin: For FC(F)(F)c1ccc(OCC2CCCNC2)nc1-c1n[nH]c2ncccc12 (centres unmarked) then?
stdout: > 700 nM
